# System: MDA-MB-435
# Protocol Text: NCI tumour cell line growth inhibition, 48 h
Calls of active or inactive are those of the source. Cut-off read from the data, not from the text of the source: active = GI50 up to about 1.1 µM and inactive = higher.
This listing pairs molecules with measured GI50.

Here's what some known entries look like.
NCCCCNC1(c2cc3ccccc3s2)CCCCC1 ... 1.82 µM (inactive)
N#CC1C(=O)SC2c3ccccc3C(=O)c3ccccc3C12 (centres undefined) ... > 10 µM (inactive)
CC1(c2ccc(F)cc2)CC(c2ccc(F)cc2)=C(C#N)C(=C(C#N)C#N)N1 (centres undefined) ... 16.6 µM (inactive)

GI50 measured on `Clc1ccc(-c2nn3c(COc4cccc(OCc5nnc6sc(-c7ccc(Cl)cc7)nn56)c4)nnc3s2)cc1` = 19.4 µM (inactive)

====

Counter-ions that a name gives are not always drawn. Residues, ends and D or L forms follow the SMILES beside them. *: point of attachment. Tfa = O=C(C(F)(F)F)*
Record: GI50 reported on HCT-15.

O=C(O)CC(NC(=O)C(F)(F)F)C(=O)NC(Cc1ccc(O)cc1)C(=O)O (stereo not drawn) (Tfa-Asp-Tyr-OH; configuration not given here) ... > 50 µM

Here's the next entry for you.
The reported GI50 of the compound `O=C(Nc1ccc(S(=O)(=O)N[C@@H](C(=O)O)c2ccccc2)cc1)c1ccc(F)cc1` was > 100 µM

====

# Test system: CAKI-1
# Protocol Text: NCI tumour cell line growth inhibition, 48 h
The source made the active and inactive calls. Cut-off read from the data, not from the text of the source: active = GI50 up to about 1.1 µM and inactive = higher.
Measured Metric: GI50

Examples with their reported GI50 follow.
COC(=O)/C=C\n1nc(Br)c(=O)[nH]c1=O ... > 100 µM (inactive)
CN(C)C(=S)OC(Cn1cncn1)c1ccc(Cl)cc1Cl (centres undefined) ... > 100 µM (inactive)
CC(=O)c1cccc(NC(=O)C(=O)NNc2nnc(S)n2N)c1 ... 17.3 µM (inactive)

Okay, next one:
Briefly, GI50 measured for `CCn1cc(C(=O)O)c(=O)c2cc3c(cc21)S(=O)(=O)CC3` : > 100 µM (inactive)

====

# System: SK-OV-3
# Protocol Text: NCI tumour cell line growth inhibition, 48 h
Calls of active or inactive are those of the source. No stated cut-off is given here; in the data, active = GI50 up to about 1.1 µM and inactive = higher.
Use one of these outcomes when replying: active, inactive

CC1CC=CC(O)C1 (stereo not given) ... inactive
COc1ccc2cc3[n+](cc2c1OC)CCc1cc2c(cc1-3)OCO2 [BERBERINE CHLORIDE] ... inactive
CC(=O)c1c(C)[n+]([O-])c2cc(Cl)c(Cl)cc2[n+]1[O-] ... inactive

Query block: Tell me the recorded outcome of this test for O=CC1=CCC2c3[nH]c4ccccc4c3CCN2C1 (stereo not given) .
Result block: inactive

Query block: Status in this test for CC(=O)NC(CS)C(=O)O (stereo not given) ?
Result block: inactive

Query block: Could you check what this test reported for `O/N=C/[C@H]1COC2(CCCCC2)O1` ?
Result block: inactive

Query block: Returns: the outcome recorded for `O=C(O)c1ccc(Nc2nc3ccccc3nc2-c2cccs2)cc1` in this assay.
Result block: inactive

Query block: Hi team, can someone confirm the assay call for `CCOC(=O)c1cc(NC(=O)N(CCC#N)CCN(C(=O)N[C@@H](Cc2ccccc2)C(=O)N[C@@H](CC(C)C)C(=O)NC)c2ccccc2)ccc1OC` ?
Result block: inactive

Query block: I'd appreciate the recorded outcome for CC1CC(C)CC(C)C(O)/C(C#N)=C/C=C/CC(C2CCCC2C(=O)O)OC(=O)CC(O)C(C)C1 (stereo not given) from this test.
Result block: active

Query block: Given COc1ccc(CC2NCCc3cc(OC)c(OC)cc32)cc1Br (stereo not given) , state the outcome it received in this test.
Result block: inactive

====

# maps each entry to its GI50
# Tested on: MDA-MB-231
# Protocol Text: NCI tumour cell line growth inhibition, 48 h
Activity calls are given as the source filed them. Rule as the data show it: active = GI50 up to about 1.1 µM and inactive = higher.

CCN(CC)C(=O)C1=C(C)NC(C)=C(C(=O)N(CC)CC)C1 ... 39.4 µM (inactive)
CCOC(=O)CCC(NC(=O)c1ccc(Oc2nc3ccc(C(F)(F)F)cc3nc2-c2ccccc2)cc1)C(=O)OCC (stereo not given) ... 8.13 µM (inactive)
COCOCC1CCCN1CN1CCC[C@H]1COCOC (stereo not given in full) ... > 100 µM (inactive)
CN(C)C(=O)C(F)(F)C(c1ccccc1Br)C1C(=O)N(C)C(=O)N(C)C1=O (stereo not given) ... > 100 µM (inactive)

Okay, now this compound:
For this compound ( `COc1ccc2cc(-c3nc(N)nc(N4N=C(C)CC4(C)C)n3)c(=N)oc2c1` ), measured GI50 is 18.8 µM (inactive)

====

# System: M19-MEL
# Protocol Text: NCI tumour cell line growth inhibition, 48 h
Active and inactive are the calls of the source. No stated cut-off is given here; in the data, active = GI50 up to about 1.1 µM and inactive = higher.
Outcomes you can answer with include only these: class 1 = active, class 0 = inactive

CCCCCC1CC=CC(NC(=O)OCc2ccccc2)C1/C=C/CCCC1OCCO1 (stereo not given) ... class 0

Query block: Hi, sorry to bother you, what did the test record for `CC#CC(=O)Nc1ccccc1CC(c1c[nH]c2ccccc12)c1c[nH]c2ccccc12` ?
Result block: class 0

Query block: Per the assay record, what outcome was assigned to `CC1=N/C(=C\c2c(O)ccc3ccccc23)C(=O)O1` ?
Result block: class 0

Query block: Test call, this molecule: COC(=O)C(=O)C(C(=O)C(=O)Nc1cccc(C(C)=O)c1)c1nc2ccccc2nc1O (stereo not given)
Result block: class 0

Query block: Look up the recorded call for `CCOc1ccccc1NC(=O)CCc1n[nH]c(=S)o1` in this test.
Result block: class 0

Query block: Hi team, can someone confirm the assay call for O=CC1=CCC2c3[nH]c4ccccc4c3CCN2C1 (stereo not given) ?
Result block: class 0

Query block: // return assay outcome for COc1cc2c(c(OC)c1OC)-c1ccc(SC)c(=O)cc1C(CO)C2 (stereo not given)
Result block: class 1

Query block: Fill in: this test's call for CC(=O)C1CCN(c2ccccc2)C1 (stereo not given) is ___
Result block: class 0

Query block: Tell me the assay call for O=CC(O)C(O)C(O)COc1cc(CO)cc2c1C(=O)c1ccccc1C2=O (stereo not given) please.
Result block: class 0

Query block: # fetch the recorded call for `CCN(CC)CCOC(=O)Cc1cccc2c(=O)cc(-c3ccccc3)oc12` here
Result block: class 0

====

# System: OVCAR-4
# Protocol Text: NCI tumour cell line growth inhibition, 48 h
Activity calls are given as the source filed them. Rule as the data show it: active = GI50 up to about 1.1 µM and inactive = higher.
Output constraint: value belongs to 1 (yes) = active, 0 (no) = inactive

Some solved cases for reference:
CCCCCC1CC=CC(NC(=O)OCc2ccccc2)C1/C=C/CCCC1OCCO1 (configuration not stated) ... 0 (no)
S=C(Nc1cccc(C2(N3CCCCC3)CCCCC2)c1)Nc1cccc(C2(N3CCCCC3)CCCCC2)c1 ... 0 (no)
O=C(Nc1nnc(-c2ccc(Cl)cc2)o1)C(SC(=S)N1CCCCC1)c1ccccc1 (configuration not stated) ... 0 (no)
CN(CCc1ccccn1)c1ccc2c(c1)C(=O)c1ccccc1-2 ... 0 (no)
COC(=O)C1CC(=O)O[C@H]1c1ccc(OC)c(OC)c1 (some centres not stated) ... 0 (no)

Query block: For this compound, state the assay outcome: CC(=O)Oc1ccc2c(c1OC(C)=O)CCC1C2=CC[C@]2(C)C(=O)CCC12 (some centres not stated)
Result block: 0 (no)

Query block: I would be grateful if you could indicate the recorded call for [N-]=[N+]=NC1C2CC3CC(C2)CC1C3 (configuration not stated) .
Result block: 0 (no)

Query block: Per the records of this test, what outcome belongs to CC(O)CCCCC(O)CCC[C@H](O)[C@H]1CCC([C@H]2CCC([C@@H](O)CCCCCCCCCCCCC3=C[C@H](C)OC3=O)O2)O1 (some centres not stated) ?
Result block: 0 (no)

====

# System: UACC-257
# Protocol Text: NCI tumour cell line growth inhibition, 48 h
The source made the active and inactive calls. No stated cut-off is given here; in the data, active = GI50 up to about 1.1 µM and inactive = higher.
# reported GI50; entries follow

Here's what some known entries look like.
O=C(O)C1CCCCN1CCc1c[nH]c2ccccc12 (stereo not drawn) ... > 100 µM (inactive)
Nc1ccc(Sc2c3ccccc3nc3ccccc23)cc1 ... 16.6 µM (inactive)
C[Si](C)(C)C#CCO[Si](C)(C)C ... > 100 µM (inactive)
O=c1[nH]cnc2sc(=S)c3c(c12)CCC3 ... 33.3 µM (inactive)
CCOC(=O)C(=O)C1C(=O)Nc2ccccc21 (stereo not drawn) ... > 100 µM (inactive)
CC(C)C(C/C=C1/CC(CO)(COC(=O)CC(C(C)C)C(C)C)OC1=O)C(C)C (stereo not drawn) ... 16 µM (inactive)

The recorded GI50 for `Cc1ccc(NC(=S)C#N)c(C)c1` is 63.2 µM (inactive)

Measured GI50, `O=c1[nH]c2c(nc1NC13CC4CC(CC(C4)C1)C3)c(=O)oc1ccccc12` : > 100 µM (inactive)

// `COc1cc(OC)cc(-c2nc(O)c3ccccc3n2)c1` : GI50 value = > 100 µM (inactive)

Notebook: CC1=NN(c2cccc(Cl)c2)C2(C1=Cc1ccccc1)C(Cl)C(=O)N2c1nc2ccccc2s1 (stereo not drawn) , GI50 read as 24 µM (inactive)

Lab book: GI50 of `O=CN1CCN(C(=O)c2ccco2)C1=S` noted as 12.1 µM (inactive)

// field: GI50; key: `c1cc(CSSCc2ccncc2)ccn1` ; value = 15.9 µM (inactive)

Please fill in: GI50 reported for COC(=O)C1=C(C)NC2=C(C(=O)c3ccccc32)C1c1cn(-c2ccccc2)nc1-c1ccccc1 (stereo not drawn) = > 85.3 µM (inactive)

The compound identified as `COc1ccc(CNc2nc(NCc3ccc(OC)c(OC)c3)nc(NC3CCCCC3)n2)cc1` registered its GI50 at > 100 µM (inactive)

Field GI50 (entry N#CC12Cc3ccc4c(c3-c3cccc(c31)CCN2C(=O)c1ccccc1)OCO4 (stereo not drawn) ) reads > 100 µM (inactive)

Data origin, for the record: ChEMBL document CHEMBL1201862
